B1: library; numbered along this chain (parent)
chain: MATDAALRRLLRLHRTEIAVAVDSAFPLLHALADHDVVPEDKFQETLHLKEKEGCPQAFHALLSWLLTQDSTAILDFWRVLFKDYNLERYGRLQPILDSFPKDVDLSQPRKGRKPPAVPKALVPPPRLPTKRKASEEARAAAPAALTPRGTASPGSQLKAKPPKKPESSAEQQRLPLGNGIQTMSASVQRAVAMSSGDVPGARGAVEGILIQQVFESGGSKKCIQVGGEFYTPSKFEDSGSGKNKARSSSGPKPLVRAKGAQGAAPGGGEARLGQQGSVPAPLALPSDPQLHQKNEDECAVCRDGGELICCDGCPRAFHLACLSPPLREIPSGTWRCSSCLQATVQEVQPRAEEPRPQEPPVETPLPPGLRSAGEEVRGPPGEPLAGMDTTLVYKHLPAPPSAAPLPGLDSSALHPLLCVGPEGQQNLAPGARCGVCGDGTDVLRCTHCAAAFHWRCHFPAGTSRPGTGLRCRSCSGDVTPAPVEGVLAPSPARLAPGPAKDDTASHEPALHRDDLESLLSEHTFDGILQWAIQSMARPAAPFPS

variants of: B1; assay: AIRE transcriptional activation functional score (insulin promoter-GFP; nonsense median 0, synonymous median 1) (normalised score); higher = higher AIRE activity (more reporter activation); settings: with insulin promoter-GFP reporter in HEK293
Outcome: y for AIRE transcriptional activation functional score of at least 0.9; n for anything lower.

**Query** Kindly determine if AIRE transcriptional activation functional score recorded for T151K is above or exactly 0.9.
**Result** n

**Query** Kindly determine if AIRE transcriptional activation functional score recorded for K221W is above or exactly 0.9.
**Result** n

**Query** Kindly determine if AIRE transcriptional activation functional score recorded for A145M is above or exactly 0.9.
**Result** n

**Query** Kindly determine if AIRE transcriptional activation functional score recorded for I533T is above or exactly 0.9.
**Result** n

**Query** Kindly determine if AIRE transcriptional activation functional score recorded for A300G is above or exactly 0.9.
**Result** n

**Query** Kindly determine if AIRE transcriptional activation functional score recorded for V118F is above or exactly 0.9.
**Result** y

**Query** Kindly determine if AIRE transcriptional activation functional score recorded for Q189N is above or exactly 0.9.
**Result** n

**Query** Kindly determine if AIRE transcriptional activation functional score recorded for T364L is above or exactly 0.9.
**Result** y

**Query** Kindly determine if AIRE transcriptional activation functional score recorded for T16A is above or exactly 0.9.
**Result** n

**Query** Kindly determine if AIRE transcriptional activation functional score recorded for K395V is above or exactly 0.9.
**Result** y

**Query** Kindly determine if AIRE transcriptional activation functional score recorded for L406T is above or exactly 0.9.
**Result** n

**Query** Kindly determine if AIRE transcriptional activation functional score recorded for L29P is above or exactly 0.9.
**Result** n

**Query** Kindly determine if AIRE transcriptional activation functional score recorded for P400G is above or exactly 0.9.
**Result** y

**Query** Kindly determine if AIRE transcriptional activation functional score recorded for A352C is above or exactly 0.9.
**Result** y

**Query** Kindly determine if AIRE transcriptional activation functional score recorded for G435L is above or exactly 0.9.
**Result** n

**Query** Kindly determine if AIRE transcriptional activation functional score recorded for G260L is above or exactly 0.9.
**Result** y

**Query** Kindly determine if AIRE transcriptional activation functional score recorded for S241A is above or exactly 0.9.
**Result** n

**Query** Kindly determine if AIRE transcriptional activation functional score recorded for A134H is above or exactly 0.9.
**Result** n
